assay target: GDP-bound protein (aa 1-169), containing both G12C and C118A amino acid substitutions (Homo sapiens, UniProt P01116, C118A/G12C)
Sequence (P01116 1-169 isoform P01116-2 G12C/C118A): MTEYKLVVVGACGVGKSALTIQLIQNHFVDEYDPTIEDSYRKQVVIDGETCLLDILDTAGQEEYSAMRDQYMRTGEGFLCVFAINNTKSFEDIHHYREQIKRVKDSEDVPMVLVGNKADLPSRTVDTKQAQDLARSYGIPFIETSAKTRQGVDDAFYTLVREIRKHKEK
test description: Coupled Nucleotide Exchange Assay (SOS-mediated nucleotide exchange, AlphaScreen)
Assay type: biochemical
settings: 2 hours compound pre-incubation
assay endpoint: Coupled exchange IC50 (µM)
Supply the numeric figure in µM, leaving out any unit text.

Sample answers from the record:
C=CC(=O)N1CCN(c2snc3c(F)c(-c4cc(N)ccc4F)c(Cl)cc23)CC1: 5.64
C=CC(=O)N1CCN(c2snc3nc(-c4c(O)cccc4F)c(Cl)cc23)[C@@H](C)C1 (racemic): 4.05
C=CC(=O)N1CCN(c2nnc(-c3ccccc3CC)c3cc(-c4c(O)cccc4F)c(Cl)cc23)CC1: 0.297
C=CC(=O)N1CCN(c2snc3c(F)c(-c4cc(O)cc5ccccc45)c(Cl)cc23)[C@@H](CO)C1: 0.562
CN(C)C/C=C/C(=O)N1CCN(c2snc3c(F)c(-c4cc(O)cc5ccccc45)c(Cl)cc23)CC1: 1.02

Documented Coupled exchange IC50 of C=CC(=O)N1CCN(c2snc3c(F)c(-c4cc(OC)cc5cnn(C)c45)c(Cl)cc23)CC1 : 15.2

Documented Coupled exchange IC50 of C=CC(=O)N1CCN(c2snc3c(F)c(-c4ccc(F)cc4F)c(Cl)cc23)CC1 : 6.98

---

System: Phosphorylation of ERK½ in A549 cells
test description: Phospho-ERK½ MSD Assay in A549 cells
Type: cell-based
settings: A549 cells; 4 hours compound treatment; 10 ng/mL EGF for 10 min; read-out: p-ERK IC50 (A549)
pIC50: −log10 of the molar value.
assay endpoint: pIC50

Sample answers from the record:
C=CC(=O)N1CCN(c2nc(=O)n(-c3ccncc3C3CC3)c3cc(-c4c(O)cccc4F)c(Cl)cc23)[C@@H](C)C1 (single isomer, unassigned) [Example 9-7-1]: 4.83
C=CC(=O)N1CCN(c2nc(=O)n(-c3ccccc3C(C)C)c3cc(-c4c(O)cccc4F)c(Cl)cc23)CC1 (single isomer, unassigned) [Example 8-1-2]: < 4.00
C=CC(=O)N1CCN(c2snc3c(F)c(-c4cc(O)cc5ccccc45)c(Cl)cc23)[C@@H](C)C1 (single isomer, unassigned): < 4.00

Documented pIC50 of C=CC(=O)N1CCN(c2snc3c(F)c(-c4cc(O)cc5ccccc45)c(Cl)cc23)CC1 (single isomer, unassigned) [Example 3-1-1] : < 4.00

---

Tested on: Phosphorylation of ERK½ in MIA PaCa-2 cells
test description: Phospho-ERK½ MSD Assay in MIA PaCa-2 cells
Assay type: cell-based
settings: MIA PaCa-2 cells; 4 hours compound treatment; 10 ng/mL EGF for 10 min; read-out: p-ERK IC50 (MIA PaCa-2)
assay endpoint: pIC50
// pIC50 is dimensionless: -log10 of concentration (M)

Sample answers from the record:
C=CC(=O)N1CCN(c2nc(=O)n(-c3ccccc3C(C)C)c3nc(-c4c(O)cccc4F)c(Cl)cc23)[C@@H](C)C1 (single isomer, unassigned) [Example 8-6-2]: 6.89
C=CC(=O)N1CCN(c2snc3c(F)c(-c4cc(O)cc5ccccc45)c(Cl)cc23)CC1 [Example 3-1]: 5.49

Documented pIC50 of C=CC(=O)N1CCN(c2snc3nc(-c4cc(O)cc5ccccc45)c(Cl)cc23)C(C)C1 (single isomer, unassigned) [Example 2-5-2] : 5.13

Documented pIC50 of C=CC(=O)N1CCN(c2nc(=O)n(-c3ccccc3C(C)C)c3nc(-c4c(O)cccc4F)c(Cl)cc23)[C@@H](C)C1 [Example 8-6] : 7.92

Documented pIC50 of C=CC(=O)N1CCN(c2nc(=O)n(-c3ccccc3C(C)C)c3cc(-c4c(C)ccc5[nH]ncc45)c(Cl)cc23)[C@@H](C)C1 (single isomer, unassigned) [Example 11-2-1] : 7.27

Origin of values: patent US11285135B2
